FYI, the data here is from patent US20240391954A1.

Collected % max activation values appear next to each entry.
# Tested on: human MC3R (human, UniProt P41968 1-323)
# Sequence (P41968 whole entry): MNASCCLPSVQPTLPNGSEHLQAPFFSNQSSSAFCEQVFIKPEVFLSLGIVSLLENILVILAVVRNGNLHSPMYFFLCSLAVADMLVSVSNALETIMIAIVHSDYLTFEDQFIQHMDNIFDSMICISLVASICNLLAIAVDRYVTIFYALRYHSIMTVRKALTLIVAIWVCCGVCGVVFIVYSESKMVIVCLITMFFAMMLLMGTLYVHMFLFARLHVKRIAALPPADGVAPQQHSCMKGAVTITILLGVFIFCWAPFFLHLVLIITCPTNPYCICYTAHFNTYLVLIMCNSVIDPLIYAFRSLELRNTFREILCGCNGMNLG
# Experiment summary: cell-based or functional assay
Positions of bridges follow the written chain, without caps; N, C: chain ends. Non-standard residues stand in square brackets, D forms with d. 2Pal = N[C@@H](Cc1ccccn1)C(=O)O; Cit = NC(=O)NCCC[C@H](N)C(=O)O; Nle = CCCC[C@H](N)C(=O)O; Orn = NCCC[C@H](N)C(=O)O; Aib = CC(C)(N)C(=O)O
Answer with a number only, understood to be in %.

The cases that follow already have their % max activation on record.
[
  {
    "Binder": "Ac-RC[Aib][2Pal][dF]RFC-NH2 (disulfide 2-8; SMILES CC(=O)N[C@@H](CCCNC(=N)N)C(=O)N[C@H]1CSSC[C@@H](C(N)=O)NC(=O)[C@H](Cc2ccccc2)NC(=O)[C@H](CCCNC(=N)N)NC(=O)[C@@H](Cc2ccccc2)NC(=O)[C@H](Cc2ccccn2)NC(=O)C(C)(C)NC1=O) [CTX-1604]",
    "Output unit": "%",
    "% max activation": 12
  },
  {
    "Binder": "{CH2CO}-[dA]H[dF]RWC-NH2 (thioether N-6; SMILES C[C@H]1NC(=O)CSC[C@@H](C(N)=O)NC(=O)[C@H](Cc2c[nH]c3ccccc23)NC(=O)[C@H](CCCNC(=N)N)NC(=O)[C@@H](Cc2ccccc2)NC(=O)[C@H](Cc2c[nH]cn2)NC1=O) [CTX-1202]",
    "Output unit": "%",
    "% max activation": 101
  },
  {
    "Binder": "Ac-C[Aib][Cit][dF]RWC-NH2 (disulfide 1-7; SMILES CC(=O)N[C@H]1CSSC[C@@H](C(N)=O)NC(=O)[C@H](Cc2c[nH]c3ccccc23)NC(=O)[C@H](CCCNC(=N)N)NC(=O)[C@@H](Cc2ccccc2)NC(=O)[C@H](CCCNC(N)=O)NC(=O)C(C)(C)NC1=O) [CTX-1633]",
    "Output unit": "%",
    "% max activation": 45
  },
  {
    "Binder": "Ac-R[Nle]C[Orn][dF]RWC-NH2 (disulfide 3-8; SMILES CCCC[C@H](NC(=O)[C@H](CCCNC(=N)N)NC(C)=O)C(=O)N[C@H]1CSSC[C@@H](C(N)=O)NC(=O)[C@H](Cc2c[nH]c3ccccc23)NC(=O)[C@H](CCCNC(=N)N)NC(=O)[C@@H](Cc2ccccc2)NC(=O)[C@H](CCCN)NC1=O) [CTX-1617]",
    "Output unit": "%",
    "% max activation": 102
  },
  {
    "Binder": "Ac-C[dA][Cit][dF]RWC-NH2 (disulfide 1-7; SMILES CC(=O)N[C@H]1CSSC[C@@H](C(N)=O)NC(=O)[C@H](Cc2c[nH]c3ccccc23)NC(=O)[C@H](CCCNC(=N)N)NC(=O)[C@@H](Cc2ccccc2)NC(=O)[C@H](CCCNC(N)=O)NC(=O)[C@@H](C)NC1=O) [CTX-1628]",
    "Output unit": "%",
    "% max activation": 45
  }
]

[in] Can you share its % max activation? I mean this binder: Ac-R[Nle]CR[dF]RWC-NH2 (disulfide 3-8; SMILES CCCC[C@H](NC(=O)[C@H](CCCNC(=N)N)NC(C)=O)C(=O)N[C@H]1CSSC[C@@H](C(N)=O)NC(=O)[C@H](Cc2c[nH]c3ccccc23)NC(=O)[C@H](CCCNC(=N)N)NC(=O)[C@@H](Cc2ccccc2)NC(=O)[C@H](CCCNC(=N)N)NC1=O) [CTX-1228]
[out] 93

[in] Lookup {CH2CO}-[Aib]H[dF]RWC-NH2 (thioether N-6; SMILES CC1(C)NC(=O)CSC[C@@H](C(N)=O)NC(=O)[C@H](Cc2c[nH]c3ccccc23)NC(=O)[C@H](CCCNC(=N)N)NC(=O)[C@@H](Cc2ccccc2)NC(=O)[C@H](Cc2c[nH]cn2)NC1=O) [CTX-1647]
[out] 102
